test system: K-562 leukemia; test: NCI tumour cell line growth inhibition, 48 h
endpoint: TGI

[[record]]
compound = "O=C(n1c2ccccc2c2n[nH]c(=S)nc21)C(F)(F)F"
endpoint = "TGI"
reading = "> 100 µM"


TGI reported for this compound O=C(O)CCC(O)=C1S(=O)(=O)OCCOS1(=O)=O : > 100 µM

TGI reported for this compound COc1ccc(C2=Nn3c(nnc3-c3ccc(F)c(Cl)c3)SC2)cc1 : > 100 µM

TGI reported for this compound O=c1cc(NNc2ccccc2)[nH]c(=O)[nH]1 : 91.1 µM

TGI reported for this compound CC(C)(C)OC(=O)N(CCCCN(CCCn1c2c(c3ccccc3c1=O)C(=O)c1ccccc1-2)C(=O)OC(C)(C)C)CCCn1c2c(c3ccccc3c1=O)C(=O)c1ccccc1-2 : > 100 µM

TGI reported for this compound COc1cc(/C=C/c2ccc(OC)c(OC)c2)oc(=O)c1 : > 250 µM

TGI reported for this compound O=CNC(Cc1cnc[nH]1)C(=O)O (stereo unspecified) : > 100 µM

TGI reported for this compound CN1C/C(=C\c2cccs2)C2=NN(c3ccccc3)C(c3cccs3)C2C1 (stereo unspecified) : > 100 µM

TGI reported for this compound CN1CCN(C2=C(Cl)C(=O)c3ccccc3C2=O)CC1 : 7.57 µM

TGI reported for this compound ClCCCN1CCN(CCCl)CC1 : > 965 µM

TGI reported for this compound N[C@H]1CCC[C@@H](O)C1O (stereo partly specified) : > 100 µM

* * *

Reported TGI values for a set of molecules
tested on: SF-295 CNS; assay: NCI tumour cell line growth inhibition, 48 h
Respond with the bare value in µM.

Please review the following examples before continuing.
[[record]]
molecule = "Cc1cccc(CNc2c3ccccc3nc3ccccc23)c1"
reading = 6.67

[[record]]
molecule = "CCC1(O)C(=O)OCc2c1cc1n(c2=O)Cc2cc3cc4c(cc3nc2-1)OCO4 (stereo unspecified)"
reading = 0.198


Continue with the molecule presented below.
TGI reported for this molecule CCCCC[C@@H]1CCCC2NC(CCCCCO[Si](c3ccccc3)(c3ccccc3)C(C)(C)C)CCC21 (stereo partly specified) : 31.3

* * *

tested on: DMS 273 small cell lung; assay: NCI tumour cell line growth inhibition, 48 h
Mark FALSE for TGI values under 10 µM, and TRUE for everything at or above.

Would you please look over these solved cases?
[[record]]
compound = "N#CN1CC[C@@H]2CC3(CCC2C1)OCCO3 (stereo not given in full)"
class = "TRUE"

[[record]]
compound = "COc1ccc2[nH]c3ccc4cc[n+](CCN5CCC(C6CCN(CC[n+]7ccc8ccc9[nH]c%10ccc(OC)cc%10c9c8c7)CC6)CC5)cc4c3c2c1"
class = "TRUE"

[[record]]
compound = "O=C1c2ccccc2C(=O)c2c1ccc1conc21"
class = "FALSE"

[[record]]
compound = "COCN1COCN(C)C1=O"
class = "TRUE"

[[record]]
compound = "N.N.N.N.N#N.N#N.[Cl-].[Os+6]"
class = "TRUE"

[[record]]
compound = "COc1ccc(C2CC(c3sc(Nc4ccc(C)cc4)nc3C)=NN2)cc1 (stereo not given)"
class = "TRUE"

[[record]]
compound = "O=C(c1ccccc1)c1nc2c(Cl)ccc(Cl)c2cc1C(Br)Br"
class = "FALSE"

[[record]]
compound = "NC(CSC(c1ccccc1)(c1ccccc1)c1ccccc1)C(=O)O (stereo not given)"
class = "FALSE"

[[record]]
compound = "Cn1c(=O)nc2n(-c3ccc(Br)cc3)c3ccccc3nc-2c1=O"
class = "TRUE"


Would you kindly look at the next entry?
Threshold query (TGI >= 10 µM) on CC(C)(C)c1cc(C2c3cc4c(cc3OC(O)(CO)C2C(=O)O)OCO4)cc(C(C)(C)C)c1O (stereo not given) (tested in a mixture with another compound) TRUE

* * *

Reported GI50 values for a set of compounds
system: OVCAR-4 ovarian; experiment: NCI tumour cell line growth inhibition, 48 h

Please review the following examples before continuing.
[[record]]
substancesmiles = "O=C1/C(=C/c2ccc(F)cc2)COc2ccc(O)c(O)c21"
reading = "2.77 µM"

[[record]]
substancesmiles = "O=C(O)CCCN1C(=O)/C(=C/C(Cl)=C/c2ccccc2)SC1=S"
reading = "2.77 µM"

[[record]]
substancesmiles = "O=C(CSSCC(=O)c1ccc(Cl)cc1)c1ccc(Cl)cc1"
reading = "18.3 µM"

[[record]]
substancesmiles = "CN(C)S(=O)(=O)c1cccc(C(=O)Nc2nc(-c3ccc(F)c(F)c3)cs2)c1"
reading = "4.62 µM"


GI50 of CNc1c2ccccc2nc2occ(Cl)c12 , assay on OVCAR-4 ovarian, is 29.4 µM

GI50 of O=[N+]([O-])c1ccccc1/C=N\NC(=S)N/N=C/c1ccccc1[N+](=O)[O-] , assay on OVCAR-4 ovarian, is 20.6 µM

GI50 of CC(C)(C)OC(=O)N(CCCCN(CCCn1c2c(c3ccccc3c1=O)C(=O)c1ccccc1-2)C(=O)OC(C)(C)C)CCCn1c2c(c3ccccc3c1=O)C(=O)c1ccccc1-2 , assay on OVCAR-4 ovarian, is > 100 µM

GI50 of Nc1c(C(=O)c2cccc(-c3cccnc3)c2)cnn1-c1ccc(F)cc1 , assay on OVCAR-4 ovarian, is > 16.3 µM

* * *

test system: SK-OV-3 ovarian; test: NCI tumour cell line growth inhibition, 48 h
Reported GI50 values for a set of compounds

Please review the following examples before continuing.
[[record]]
substancesmiles = "Cc1cc(NC(=O)NCCOc2ccc(N3C(N)=NC(N)=NC3(C)C)cc2Cl)ccc1S(=O)(=O)F"
endpoint = "GI50"
reading = "12 µM"

[[record]]
substancesmiles = "O=C1/C(=C/c2ccc(F)cc2)COc2ccc(O)c(O)c21"
endpoint = "GI50"
reading = "4.45 µM"

[[record]]
substancesmiles = "COc1ccc(Cn2cc3c(c2-c2ccccc2)CCc2cnoc2-3)cc1"
endpoint = "GI50"
reading = "0.226 µM"

[[record]]
substancesmiles = "CCCC(=O)Oc1ccc(/C(=C(\\C)c2ccc(Cl)cc2)c2ccc(OCCN(CC)CC)cc2)cc1"
endpoint = "GI50"
reading = "4.85 µM"

[[record]]
substancesmiles = "COC(=O)CNC(=O)C(=O)c1c(O)c(O)c(C(C)C)c2cc(C)c(-c3c(C)cc4c(C(C)C)c(O)c(O)c(C(=O)C(=O)NCC(=O)OC)c4c3O)c(O)c12"
endpoint = "GI50"
reading = "1.79 µM"


GI50 reported for this compound CNC(=O)[C@H](Cc1c[nH]c2ccccc12)NC(=O)[C@@H](CC(=O)NO)CC(C)C : > 25 µM

GI50 reported for this compound O=C(c1ccc(Cl)cc1Cl)N1CCN(C(=O)c2ccc(Cl)cc2Cl)C1=S : 22.8 µM

* * *

test system: M14 melanoma; test: NCI tumour cell line growth inhibition, 48 h
endpoint: TGI

Please review the following examples before continuing.
[[record]]
molecule = "CC(C)(C)c1cc(C2c3cc4c(cc3OC(O)(CO)C2C(=O)O)OCO4)cc(C(C)(C)C)c1O (stereo not given) (tested in a mixture with another compound)"
reading = "30.7 µM"

[[record]]
molecule = "CCC1(O)C(=O)OCc2c1cc1n(c2=O)Cc2cc3cc4c(cc3nc2-1)OCO4 (stereo not given)"
reading = "0.0632 µM"


TGI reported for this molecule O=C(NC(=S)Nc1ccc(Br)cc1)c1ccc2c(c1)Sc1ccccc1O2 : > 100 µM

TGI reported for this molecule COC(=O)c1csc(-c2csc(CCNC(=O)OC(C)(C)C)n2)n1 : > 100 µM

TGI reported for this molecule CN[C@@H](C)C(=O)N[C@H](C(=O)N1CCC[C@H]1c1nc(C(=O)c2ccc(F)cc2)cs1)C1CCCCC1 : 38.4 µM

TGI reported for this molecule OCc1c(-c2cccs2)oc(-c2cccs2)c1CO : > 100 µM

TGI reported for this molecule COc1ccc(-c2nc(NC(=O)CS(=O)(=O)c3ccc(F)cc3)sc2C)cc1 : 55.7 µM

TGI reported for this molecule COc1ccc(C2=C(OC(C)=O)c3cccn3-c3ccc(Cl)cc3S2)cc1 : > 10 µM

TGI reported for this molecule Cc1cc2ncn(CC(=O)O)c2cc1C : > 100 µM

TGI reported for this molecule COc1ccc(-c2cc(=O)c3c(O)c(O)c(OC)cc3o2)cc1O : > 100 µM

* * *

test system: OVCAR-4 ovarian; assay: NCI tumour cell line growth inhibition, 48 h
endpoint: TGI

Please review the following examples before continuing.
[[record]]
molecule = "COc1cc(/C=C/C(=O)c2c(C)n([O-])c3ccccc3[n+]2=O)cc(OC)c1OC"
endpoint = "TGI"
reading = "> 100 µM"

[[record]]
molecule = "CCCC(=O)Oc1ccc(/C(=C(\\C)c2ccc(Cl)cc2)c2ccc(OCCN(CC)CC)cc2)cc1"
endpoint = "TGI"
reading = "19.4 µM"

[[record]]
molecule = "CCN(CC)Cc1cc(N=Nc2c(O)ccc3c(N=Nc4ccc(O)c(CN(CC)CC)c4)c(O)ccc23)ccc1O"
endpoint = "TGI"
reading = "7.21 µM"


TGI reported for this molecule COc1ccc(C2=C(c3ccc(OC)cc3)C(=O)OC2)cc1 : > 100 µM

TGI reported for this molecule O=C1NC(c2ccccc2)(c2ccccc2)C(=O)N1CCCCCCN1C(=O)NC(c2ccccc2)(c2ccccc2)C1=O : 27.6 µM

TGI reported for this molecule C/C(Cc1ccc2c(c1)OCO2)=N\N=c1\sc2ccccc2n1C : > 100 µM

TGI reported for this molecule CC(=O)OCC1OC(n2c(C)c(C)cc(C#N)c2=S)C(OC(C)=O)C(OC(C)=O)C1OC(C)=O (centres undefined) : > 100 µM

TGI reported for this molecule CCN1C(=O)N(CC)C2C1NN=c1s/c(=C3\C(=O)Nc4ccccc43)c(=O)n12 (centres undefined) : > 100 µM

TGI reported for this molecule O=[N+]([O-])c1ccccc1/C=N\NC(=S)N/N=C/c1ccccc1[N+](=O)[O-] : > 100 µM
